Where these numbers come from: ChEMBL document CHEMBL2218924

# System tested: Phosphorylase b kinase gamma catalytic chain, liver/testis isoform (Homo sapiens)
# Settings: at 1 µM
Reported metric: residual activity (%)
Give bare numbers, in %.

// worked examples, residual activity included
[[record]]
molecular_string = "O=C(O)c1ccc2c3c1cccc3c(=O)n1c3ccccc3nc21"
system_tested = "Phosphorylase b kinase gamma catalytic chain, liver/testis isoform (Homo sapiens)"
reading_unit = "%"
measured_result = 95

[[record]]
molecular_string = "CO[C@H]1[C@@H](OC)C[C@H](C)[C@@H](OC)C2=CC(=O)C=C(NC(=O)/C(C)=C/C=C/[C@H](OC)[C@@H](OC(N)=O)/C(C)=C/[C@@H]1C)C2=O"
system_tested = "Phosphorylase b kinase gamma catalytic chain, liver/testis isoform (Homo sapiens)"
reading_unit = "%"
measured_result = 97

[[record]]
molecular_string = "CCOc1cc2ncnc(Nc3cccc(Br)c3)c2cc1OCC"
system_tested = "Phosphorylase b kinase gamma catalytic chain, liver/testis isoform (Homo sapiens)"
reading_unit = "%"
measured_result = 92

[[record]]
molecular_string = "COc1cc2ncnc(N3CCN(C(=O)Nc4ccc(Oc5ccccc5)cc4)CC3)c2cc1OC"
system_tested = "Phosphorylase b kinase gamma catalytic chain, liver/testis isoform (Homo sapiens)"
reading_unit = "%"
measured_result = 103


--- query ---
-- ask Quick one: residual activity for "CC#CC(=O)Nc1cc2c(Nc3ccc(F)c(Cl)c3)ncnc2cn1" ?
-- reply 92

----------
# System tested: Ephrin type-A receptor 8 (Homo sapiens) (UniProt P29322)
# Sequence (whole entry): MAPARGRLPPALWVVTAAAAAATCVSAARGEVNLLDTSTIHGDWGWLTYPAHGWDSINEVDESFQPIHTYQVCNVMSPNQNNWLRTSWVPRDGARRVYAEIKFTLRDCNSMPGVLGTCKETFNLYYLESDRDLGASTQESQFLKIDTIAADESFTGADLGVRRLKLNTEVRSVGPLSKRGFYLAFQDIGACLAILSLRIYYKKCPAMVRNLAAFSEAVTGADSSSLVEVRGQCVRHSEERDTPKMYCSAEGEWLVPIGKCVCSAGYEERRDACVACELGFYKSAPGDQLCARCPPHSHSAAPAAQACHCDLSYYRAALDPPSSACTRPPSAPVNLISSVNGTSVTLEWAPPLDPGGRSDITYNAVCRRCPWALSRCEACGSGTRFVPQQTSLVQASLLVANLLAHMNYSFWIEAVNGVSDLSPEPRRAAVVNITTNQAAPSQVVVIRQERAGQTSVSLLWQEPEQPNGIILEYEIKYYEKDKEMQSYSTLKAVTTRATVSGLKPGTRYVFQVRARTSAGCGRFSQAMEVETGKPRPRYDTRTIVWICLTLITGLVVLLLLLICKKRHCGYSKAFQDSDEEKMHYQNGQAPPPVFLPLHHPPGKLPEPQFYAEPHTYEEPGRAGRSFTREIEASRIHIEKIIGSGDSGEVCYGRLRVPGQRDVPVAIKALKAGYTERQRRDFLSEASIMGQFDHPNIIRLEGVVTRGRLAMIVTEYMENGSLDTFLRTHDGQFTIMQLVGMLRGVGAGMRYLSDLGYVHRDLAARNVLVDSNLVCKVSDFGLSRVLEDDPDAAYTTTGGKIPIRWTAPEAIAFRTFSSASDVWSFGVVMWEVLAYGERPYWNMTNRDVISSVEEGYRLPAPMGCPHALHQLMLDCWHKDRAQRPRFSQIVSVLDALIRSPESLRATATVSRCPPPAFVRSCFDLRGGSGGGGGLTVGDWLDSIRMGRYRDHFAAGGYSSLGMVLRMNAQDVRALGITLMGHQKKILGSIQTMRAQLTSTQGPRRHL
# Settings: at 1 µM
Parameter threshold = 90%. Response is criterion met when residual activity meets or exceeds it, else criterion not met.

Answered examples (6):
[[record]]
compound = "COc1ccc(S(=O)(=O)N(CCO)c2ccccc2CN(C)C/C=C/c2ccc(Cl)cc2)cc1"
assigned_class = "criterion met"

[[record]]
compound = "Cc1nc(-c2ccccc2)c(-c2ccncc2)o1"
assigned_class = "criterion not met"

[[record]]
compound = "O=C(Nc1cccc(Nc2cc(Nc3cccc(C(F)(F)F)c3)ncn2)c1)C1CC1"
assigned_class = "criterion met"

[[record]]
compound = "Nc1cccc(-c2cc3c(Oc4cccc(O)c4)ncnc3[nH]2)c1"
assigned_class = "criterion not met"

[[record]]
compound = "O=C1Nc2ccccc2/C1=C1/Nc2ccccc2/C1=N\\OCCC(O)CO (stereo not drawn)"
assigned_class = "criterion not met"

[[record]]
compound = "O=C1NC(=O)c2c1c1c3ccccc3[nH]c1c1[nH]c3cc(Br)ccc3c21"
assigned_class = "criterion met"


-- ask For this compound, is measured residual activity 90% or higher? "c1ccc2c(-c3ccncc3)c[nH]c2c1"
-- reply criterion met

-- ask For this compound, is measured residual activity 90% or higher? "COc1cccc(-c2cc(=O)c3ccccc3o2)c1N"
-- reply criterion met

-- ask For this compound, is measured residual activity 90% or higher? "O=C1NC(=O)/C(=C/c2ccc3c(c2)OC(F)(F)O3)S1"
-- reply criterion met

----------
For each of the molecules below, state its residual activity.
# System tested: Ephrin type-A receptor 4 (Homo sapiens) (UniProt P54764)
# Sequence (P54764 whole entry): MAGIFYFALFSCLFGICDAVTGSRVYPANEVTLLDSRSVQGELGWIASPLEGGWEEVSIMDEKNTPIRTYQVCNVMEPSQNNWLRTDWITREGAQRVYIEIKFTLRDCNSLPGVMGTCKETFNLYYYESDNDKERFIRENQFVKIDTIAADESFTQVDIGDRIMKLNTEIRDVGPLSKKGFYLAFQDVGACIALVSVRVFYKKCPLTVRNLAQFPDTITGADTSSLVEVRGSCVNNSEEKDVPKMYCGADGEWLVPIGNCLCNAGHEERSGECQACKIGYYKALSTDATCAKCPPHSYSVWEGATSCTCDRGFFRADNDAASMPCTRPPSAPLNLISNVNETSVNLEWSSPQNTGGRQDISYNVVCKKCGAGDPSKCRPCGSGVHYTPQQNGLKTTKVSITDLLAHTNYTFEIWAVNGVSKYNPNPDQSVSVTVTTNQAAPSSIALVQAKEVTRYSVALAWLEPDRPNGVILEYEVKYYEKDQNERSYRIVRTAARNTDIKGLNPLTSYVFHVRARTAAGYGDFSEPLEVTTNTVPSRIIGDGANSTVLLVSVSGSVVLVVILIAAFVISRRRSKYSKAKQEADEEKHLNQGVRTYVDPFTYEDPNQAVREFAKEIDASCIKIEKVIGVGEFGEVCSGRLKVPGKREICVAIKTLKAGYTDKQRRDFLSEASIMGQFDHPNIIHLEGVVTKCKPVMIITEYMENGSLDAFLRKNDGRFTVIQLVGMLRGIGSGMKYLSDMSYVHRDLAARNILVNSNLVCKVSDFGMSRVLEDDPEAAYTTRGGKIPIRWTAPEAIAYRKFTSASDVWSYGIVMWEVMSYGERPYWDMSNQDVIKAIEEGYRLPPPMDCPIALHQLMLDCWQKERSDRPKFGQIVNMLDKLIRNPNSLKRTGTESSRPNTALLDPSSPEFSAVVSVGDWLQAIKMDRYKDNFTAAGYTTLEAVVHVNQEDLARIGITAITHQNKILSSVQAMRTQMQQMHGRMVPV
# Settings: at 1 µM
Give bare numbers, in %.

// worked examples, residual activity included
[[record]]
molecular_string = "Cn1cnc2cc3c(Nc4cccc(Br)c4)ncnc3cc21"
measured_result = 106

[[record]]
molecular_string = "O=C1Nc2cc(Br)ccc2/C1=C1/Nc2ccccc2/C1=N\\O"
measured_result = 109


Could I get residual activity for every one of these entries?
1. COc1cc2ncnc(Nc3ccc(NC(=O)c4ccccc4)cc3)c2cc1OC
2. Cc1ccc(NC2=CC(=O)c3sc(C)nc3C2=O)cc1

-- reply
[109, 101]

----------
# System tested: Serine/threonine-protein kinase 4 (Homo sapiens)
# Settings: at 10 µM
Reported metric: residual activity
Please answer using the number first and the unit second.

// worked examples, residual activity included
[[record]]
molecular_string = "CC#CC(=O)Nc1cc2c(Nc3ccc(F)c(Cl)c3)ncnc2cn1"
reported_metric = "residual activity"
measured_result = "84%"

[[record]]
molecular_string = "Nc1nc(Nc2ccc(S(N)(=O)=O)cc2)nn1C(=S)Nc1c(F)cccc1F"
reported_metric = "residual activity"
measured_result = "-3%"

[[record]]
molecular_string = "COc1ccc(C(=O)Nc2sc3c(c2C(N)=O)CCCC3)cc1OC"
reported_metric = "residual activity"
measured_result = "95%"


--- query ---
-- ask Quick one: residual activity for "COc1cccc(-c2cc(=O)c3ccccc3o2)c1N" ?
-- reply 114%

----------
For each of the compounds below, state its residual activity.
# System tested: Ephrin type-A receptor 3 (Homo sapiens)
# Settings: at 1 µM
Answers are plain numbers, in %.

[[record]]
compound = "O=C1Nc2ccccc2/C1=C1/Nc2ccccc2/C1=N\\OCCC(O)CO (stereo not given)"
measured_result = 41


Could I get residual activity for every one of these entries?
1. NC(=O)c1ccc2[nH]c(-c3ccc(Oc4ccc(Cl)cc4)cc3)nc2c1
2. CO[C@@H]1[C@H](N(C)C(=O)c2ccccc2)C[C@H]2O[C@]1(C)n1c3ccccc3c3c4c(c5c6ccccc6n2c5c31)C(=O)NC4
3. c1ccc(-c2n[nH]cc2-c2ccnc3ccccc23)nc1
4. Oc1ccc(Nc2nc(-c3ccc(Cl)cc3)cs2)cc1
5. CC(=O)c1ccc(N2CCOCC2)cc1O
6. Oc1ccc(-c2nc(-c3ccc(F)cc3)c(-c3ccncc3)[nH]2)cc1
7. O=C(Nc1cccc(Nc2cc(Nc3cccc(C(F)(F)F)c3)ncn2)c1)C1CC1
8. CC(=O)O/N=C1\C(=C2\C(=O)Nc3cc(Br)ccc32)Nc2ccccc21

-- reply
[100, 97, 99, 107, 107, 105, 115, 74]

Could I get residual activity for every one of these entries?
1. Cc1nc(-c2ccccc2)c(-c2ccncc2)o1
2. CO[C@H]1C[C@@H]2CC[C@@H](C)[C@@](O)(O2)C(=O)C(=O)N2CCCC[C@H]2C(=O)O[C@H]([C@H](C)C[C@@H]2CC[C@@H](O)[C@H](OC)C2)CC(=O)[C@H](C)/C=C(\C)[C@@H](O)[C@@H](OC)C(=O)[C@H](C)C[C@H](C)/C=C/C=C/C=C/1C
3. CO[C@H]1[C@@H](OC)C[C@H](C)[C@@H](OC)C2=CC(=O)C=C(NC(=O)/C(C)=C/C=C/[C@H](OC)[C@@H](OC(N)=O)/C(C)=C/[C@@H]1C)C2=O
4. O=[N+]([O-])c1ccc(-c2nc(-c3ccc(F)cc3)c(-c3ccncc3)[nH]2)cc1
5. O=C(Nc1cccc(Nc2nccc(Nc3cccc(C(F)(F)F)c3)n2)c1)C1CC1
6. Nc1ccc2ncnc(NCCc3ccc(Oc4ccccc4)cc3)c2c1
7. COc1cc2ncnc(Nc3ccc(O)c(Br)c3)c2cc1OC

-- reply
[92, 103, 101, 99, 95, 95, 79]

----------
For each of the molecules below, state its residual activity.
# System tested: Serine/threonine-protein kinase ULK2 (Homo sapiens) (UniProt Q8IYT8)
# Sequence (Q8IYT8 whole entry): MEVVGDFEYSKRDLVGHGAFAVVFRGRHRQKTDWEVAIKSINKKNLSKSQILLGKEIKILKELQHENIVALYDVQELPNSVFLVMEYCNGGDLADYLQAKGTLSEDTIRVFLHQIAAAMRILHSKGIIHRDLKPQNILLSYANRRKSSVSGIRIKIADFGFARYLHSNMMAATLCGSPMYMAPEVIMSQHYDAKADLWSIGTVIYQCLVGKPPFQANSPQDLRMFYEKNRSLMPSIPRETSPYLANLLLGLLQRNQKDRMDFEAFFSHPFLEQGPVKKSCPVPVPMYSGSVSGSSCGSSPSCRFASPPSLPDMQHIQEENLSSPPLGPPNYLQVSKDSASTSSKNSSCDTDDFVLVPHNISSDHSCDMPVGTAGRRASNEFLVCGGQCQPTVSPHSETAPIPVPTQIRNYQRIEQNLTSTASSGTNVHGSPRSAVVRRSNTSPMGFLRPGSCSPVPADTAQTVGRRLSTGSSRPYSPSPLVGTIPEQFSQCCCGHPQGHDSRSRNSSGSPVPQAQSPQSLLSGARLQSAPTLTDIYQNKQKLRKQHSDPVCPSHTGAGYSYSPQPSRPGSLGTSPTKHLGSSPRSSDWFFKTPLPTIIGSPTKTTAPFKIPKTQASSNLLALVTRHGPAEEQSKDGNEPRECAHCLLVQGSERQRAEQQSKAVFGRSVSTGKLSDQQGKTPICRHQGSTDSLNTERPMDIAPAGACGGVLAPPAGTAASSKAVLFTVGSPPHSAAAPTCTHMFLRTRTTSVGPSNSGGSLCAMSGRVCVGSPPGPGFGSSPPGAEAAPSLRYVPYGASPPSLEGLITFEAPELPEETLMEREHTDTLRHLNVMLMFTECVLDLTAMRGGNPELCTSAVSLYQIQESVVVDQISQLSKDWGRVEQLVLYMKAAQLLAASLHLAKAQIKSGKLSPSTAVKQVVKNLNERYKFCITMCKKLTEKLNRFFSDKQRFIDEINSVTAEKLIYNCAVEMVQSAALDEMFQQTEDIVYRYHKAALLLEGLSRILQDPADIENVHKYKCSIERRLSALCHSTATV
# Settings: at 1 µM
One number for each entry, in %.

Could I get residual activity for every one of these entries?
1. C[C@@H](N)[C@H]1CC[C@H](C(=O)Nc2ccncc2)CC1
2. COc1cc2ncnc(Nc3ccc(O)c(Br)c3)c2cc1OC
3. COc1ccc(CNc2nc(N(CCO)CCO)nc3c2ncn3C(C)C)cc1
4. CN(C)CCCn1cc(C2=C(c3c[nH]c4ccccc34)C(=O)NC2=O)c2ccccc21
5. CC[n+]1c(/C=C/N(C)c2ccccc2)n(-c2ccccc2)c2ccc(-c3nc4ccccc4s3)cc21

-- reply
1. 85
2. 89
3. 97
4. 110
5. 110

Could I get residual activity for every one of these entries?
1. Cn1cc(/C=C2\C(=O)Nc3ccc(S(N)(=O)=O)cc32)c2ccccc21
2. CCN(CC)CCCCN1c2ccccc2Oc2ccc(Cl)cc21
3. Cc1nc2cc3nc(-c4cccs4)cnc3cc2n1C
4. CN(C)c1ccc(/C=C2\C(=O)Nc3ccccc32)cc1
5. O=C(Nc1cccc(Nc2nccc(Nc3cccc(C(F)(F)F)c3)n2)c1)C1CC1
6. Oc1ccc(-c2nc(-c3ccc(F)cc3)c(-c3ccncc3)[nH]2)cc1
7. COc1ccc(S(=O)(=O)N(CCO)c2ccccc2CN(C)C/C=C/c2ccc(Cl)cc2)cc1
8. O=C(O)c1ccc2c3c1cccc3c(=O)n1c3ccccc3nc21

-- reply
43
116
108
107
101
112
113
90

Could I get residual activity for every one of these entries?
1. Nc1n[nH]c2nnc(-c3c(-c4ccccc4)nn4ccccc34)cc12
2. O=C1Nc2ccccc2/C1=C1/Nc2ccccc2/C1=N\OCCC(O)CO (configuration not stated)
3. CO[C@H]1C[C@@H]2CC[C@@H](C)[C@@](O)(O2)C(=O)C(=O)N2CCCC[C@H]2C(=O)O[C@H]([C@H](C)C[C@@H]2CC[C@@H](O)[C@H](OC)C2)CC(=O)[C@H](C)/C=C(\C)[C@@H](O)[C@@H](OC)C(=O)[C@H](C)C[C@H](C)/C=C/C=C/C=C/1C
4. O=C1NC(=O)/C(=C/c2ccc3c(c2)OC(F)(F)O3)S1
5. CC(=O)c1ccc(N2CCOCC2)cc1O
6. CO[C@H]1[C@@H](OC)C[C@H](C)[C@@H](OC)C2=CC(=O)C=C(NC(=O)/C(C)=C/C=C/[C@H](OC)[C@@H](OC(N)=O)/C(C)=C/[C@@H]1C)C2=O
7. Oc1n[nH]c2nnc(-c3c(-c4ccccc4)nn4ccccc34)cc12
8. N#C/C(=C(\N)Sc1ccc(N)cc1)c1ccccc1C(F)(F)F

-- reply
1. 95
2. 98
3. 91
4. 106
5. 106
6. 100
7. 91
8. 119
